tested on: WSU‐DLCL2; assay: MTT proliferation assay, WSU‐DLCL2; assay type: cell-based; settings: Homo sapiens, WSUDLCL2, WSU‐DLCL2, 72 h treatment, n = 2, read-out: IC50 (cell proliferation)
Metric Name: IC50
Entry format: amount then unit.

Could I get IC50 for every one of these entries?
1. CC1=NN(c2ccc(C(=O)NCCOCCOCCNC(=O)COc3cccc4c3C(=O)N(C3CCC(=O)NC3=O)C4=O)cc2)C(=O)/C1=C\c1ccc(-c2cc(C)c(C)cc2[N+](=O)[O-])o1 (centres unmarked)
2. CC1=NN(c2ccc(C(=O)NCCCOCCOCCOCCCNC(=O)COc3cccc4c3C(=O)N(C3CCC(=O)NC3=O)C4=O)cc2)C(=O)/C1=C\c1ccc(-c2cc(C)c(C)cc2[N+](=O)[O-])o1 (centres unmarked)

**Result**
1. 5.23 µM
2. 3.24 µM
